pIC50 for assorted compounds
Test system: c-myc
Experiment: Inhibition of cMYC expression in cancer cell lines (mRNA, real-time PCR)
Assay type: cell-based
Conditions: Human AML MV4-11 cells, 3 h
pIC50: −log10 of the molar value.

Known pIC50 results, listed for orientation:
[[record]]
compound = "Cc1noc(C)c1-c1cc(N)c(=O)n(Cc2ccc(C3CO3)cc2)c1 (centres unmarked) [Example 3]"
reported_endpoint = "pIC50"
assay_value = "4.52 to 5.52"

[[record]]
compound = "Cc1noc(C)c1-c1cnc2nc(C)n(Cc3ccc(CCCl)cc3)c2c1 [Example 5]"
reported_endpoint = "pIC50"
assay_value = "5.52 to 6.52"

[[record]]
compound = "Cc1noc(C)c1-c1cc(N)c2ncn(Cc3ccc(C4CO4)cc3)c2c1 (centres unmarked) [Example 4]"
reported_endpoint = "pIC50"
assay_value = "5.52 to 6.52"


If you can, please state the reported pIC50 value of Cc1noc(C)c1-c1ccc(=O)n(Cc2ccc(C3CO3)cc2)c1 (centres unmarked) [Example 2] . 4.52 to 5.52

Given the entry Cc1noc(C)c1-c1ccc(=O)n(Cc2ccc(C3CO3)c(F)c2)c1 (centres unmarked) [Example 1] , report its measured pIC50. 4.52 to 5.52
